biological target: EPHB2 (UniProt P29323); assay: phosphorylation enrichment, bacterial display (enrichment ratio); higher = better substrate or ligand; peptides without Tyr show the background;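 also: 11-residue human phosphosite peptides and single-mutation variants displayed on the E. coli surface, counted by deep sequencing, each peptide's frequency after selection divided by its frequency in the unselected input library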;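 also: frequency after pTyr selection over input frequency; kinase dosed for 20-30% of maximal phosphorylation in three min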
Sequence (P29323 whole entry, looked up): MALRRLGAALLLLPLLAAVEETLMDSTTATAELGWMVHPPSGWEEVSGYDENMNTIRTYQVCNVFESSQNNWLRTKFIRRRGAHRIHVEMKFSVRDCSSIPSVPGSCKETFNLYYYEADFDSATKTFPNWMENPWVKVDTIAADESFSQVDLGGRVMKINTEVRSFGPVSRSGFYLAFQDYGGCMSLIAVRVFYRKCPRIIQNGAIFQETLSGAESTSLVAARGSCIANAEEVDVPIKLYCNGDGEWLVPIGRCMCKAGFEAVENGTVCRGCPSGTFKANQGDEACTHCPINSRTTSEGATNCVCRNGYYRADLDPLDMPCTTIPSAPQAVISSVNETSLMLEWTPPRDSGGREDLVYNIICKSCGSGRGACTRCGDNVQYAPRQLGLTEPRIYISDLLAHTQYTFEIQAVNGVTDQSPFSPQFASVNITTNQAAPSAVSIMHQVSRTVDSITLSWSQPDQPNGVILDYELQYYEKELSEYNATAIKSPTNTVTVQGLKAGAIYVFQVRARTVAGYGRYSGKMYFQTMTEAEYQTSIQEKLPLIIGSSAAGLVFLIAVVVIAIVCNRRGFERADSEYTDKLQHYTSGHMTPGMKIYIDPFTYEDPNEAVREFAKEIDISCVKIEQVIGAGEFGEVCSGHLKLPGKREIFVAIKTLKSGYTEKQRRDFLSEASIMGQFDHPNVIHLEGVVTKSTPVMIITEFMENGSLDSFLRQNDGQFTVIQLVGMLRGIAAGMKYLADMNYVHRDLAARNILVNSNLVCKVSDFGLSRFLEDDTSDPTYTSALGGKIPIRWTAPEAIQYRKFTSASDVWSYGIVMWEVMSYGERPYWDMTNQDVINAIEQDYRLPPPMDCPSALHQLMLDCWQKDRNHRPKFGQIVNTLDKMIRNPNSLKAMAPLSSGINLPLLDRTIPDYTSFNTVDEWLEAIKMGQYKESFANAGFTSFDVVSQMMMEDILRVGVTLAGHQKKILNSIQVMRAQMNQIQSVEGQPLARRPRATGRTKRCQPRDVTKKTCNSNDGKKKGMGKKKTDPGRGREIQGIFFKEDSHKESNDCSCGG
Recorded endpoint: phosphorylation enrichment
No unit in the answer, only the number.

Record sequence: AKKIKYFEGVS [PRKDC_Y682]
Measured target: EPHB2 (UniProt P29323)
Recorded endpoint: phosphorylation enrichment
Result number: 0.44

Record sequence: PDSVDYPKKGF [CTSK_Y121_R122P_YF]
Measured target: EPHB2 (UniProt P29323)
Recorded endpoint: phosphorylation enrichment
Result number: 1.13

Record sequence: NDKLRYEVSSP [CDH13_Y66]
Measured target: EPHB2 (UniProt P29323)
Recorded endpoint: phosphorylation enrichment
Result number: 0.502

Record sequence: DFTEAYNSKIK [CLK1_Y305_P307S_YF]
Measured target: EPHB2 (UniProt P29323)
Recorded endpoint: phosphorylation enrichment
Result number: 0.622

Record sequence: WRVIGYHVVVW [ATP13A2_Y50]
Measured target: EPHB2 (UniProt P29323)
Recorded endpoint: phosphorylation enrichment
Result number: 0.692

// query Recall the recorded phosphorylation enrichment for WQQQSYLDSGS [CTNNB1_Y30_I35S] with EPHB2 (UniProt P29323) and state it.
// result 0.528

// query Recall the recorded phosphorylation enrichment for GISDEYHVIRR [GCDH_Y398_H403R] with EPHB2 (UniProt P29323) and state it.
// result 0.541

###

molecular target: Hck (UniProt P08631); assay: phosphorylation enrichment, bacterial display (enrichment ratio); higher = better substrate or ligand; peptides without Tyr show the background
Sequence (P08631 whole entry, looked up): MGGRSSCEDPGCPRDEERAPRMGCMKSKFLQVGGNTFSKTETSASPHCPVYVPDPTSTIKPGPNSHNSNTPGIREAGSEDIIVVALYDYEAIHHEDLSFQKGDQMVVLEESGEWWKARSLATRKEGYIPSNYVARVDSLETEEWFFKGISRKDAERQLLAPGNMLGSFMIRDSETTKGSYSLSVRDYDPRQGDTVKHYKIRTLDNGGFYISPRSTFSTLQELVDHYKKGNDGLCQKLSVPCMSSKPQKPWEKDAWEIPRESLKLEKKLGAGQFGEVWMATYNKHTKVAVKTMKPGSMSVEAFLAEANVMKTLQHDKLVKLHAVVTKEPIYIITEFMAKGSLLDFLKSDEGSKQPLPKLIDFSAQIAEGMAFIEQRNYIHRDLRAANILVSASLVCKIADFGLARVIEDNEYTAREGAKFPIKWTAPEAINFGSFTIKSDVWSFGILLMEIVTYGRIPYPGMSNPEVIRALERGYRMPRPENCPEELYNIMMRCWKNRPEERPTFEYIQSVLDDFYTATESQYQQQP
Label MET when phosphorylation enrichment >= 0.6; otherwise NOT MET.

Record sequence: MDDKEYYSVHN [MET_Y1234_Y1230D]
Class name: MET

--- query ---
// query For this sequence, is measured phosphorylation enrichment 0.6 or higher? GLGGGYGGASG [KRT8_Y54]
// result NOT MET

###

biological target: MERTK (UniProt Q12866); experiment: phosphorylation enrichment, bacterial display (enrichment ratio); higher = better substrate or ligand; peptides without Tyr show the background
Sequence (Q12866 whole entry, looked up): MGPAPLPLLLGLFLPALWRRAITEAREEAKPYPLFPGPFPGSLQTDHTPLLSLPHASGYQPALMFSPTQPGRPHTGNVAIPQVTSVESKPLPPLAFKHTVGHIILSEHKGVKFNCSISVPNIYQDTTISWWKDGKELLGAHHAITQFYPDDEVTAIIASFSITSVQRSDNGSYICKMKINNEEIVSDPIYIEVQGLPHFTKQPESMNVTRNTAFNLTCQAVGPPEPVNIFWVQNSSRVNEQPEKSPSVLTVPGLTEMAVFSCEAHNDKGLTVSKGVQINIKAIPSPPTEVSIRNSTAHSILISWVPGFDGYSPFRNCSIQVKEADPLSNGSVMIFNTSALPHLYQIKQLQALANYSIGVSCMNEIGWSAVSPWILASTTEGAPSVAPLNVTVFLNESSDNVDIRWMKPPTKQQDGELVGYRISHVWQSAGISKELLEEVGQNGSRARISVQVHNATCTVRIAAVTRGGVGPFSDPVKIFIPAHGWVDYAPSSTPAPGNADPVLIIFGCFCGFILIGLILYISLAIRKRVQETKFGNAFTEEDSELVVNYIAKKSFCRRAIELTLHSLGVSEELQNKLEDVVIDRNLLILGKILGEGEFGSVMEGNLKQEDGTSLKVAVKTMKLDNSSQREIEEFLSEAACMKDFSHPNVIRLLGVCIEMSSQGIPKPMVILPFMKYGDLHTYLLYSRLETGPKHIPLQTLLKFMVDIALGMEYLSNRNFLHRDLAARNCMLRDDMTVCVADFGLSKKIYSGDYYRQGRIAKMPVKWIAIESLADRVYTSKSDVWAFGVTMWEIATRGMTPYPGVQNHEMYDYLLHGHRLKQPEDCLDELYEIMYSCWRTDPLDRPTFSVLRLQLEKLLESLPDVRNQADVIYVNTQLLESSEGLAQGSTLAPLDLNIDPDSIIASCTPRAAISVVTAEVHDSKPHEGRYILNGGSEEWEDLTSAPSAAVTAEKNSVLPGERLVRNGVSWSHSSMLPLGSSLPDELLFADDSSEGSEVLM
Label y when phosphorylation enrichment >= 0.5; otherwise n.

Record sequence: AKRKNYAPVAM [CFAP47_Y557]
Measured target: MERTK (UniProt Q12866)
Class name: n
//
Record sequence: TGEKLYQHKEF [ZNF283_Y627_R629H]
Measured target: MERTK (UniProt Q12866)
Class name: n
//
Record sequence: QNTGFYFDLFG [PTPN11_Y62_D61Y_YF]
Measured target: MERTK (UniProt Q12866)
Class name: y

// query For this sequence, is measured phosphorylation enrichment 0.5 or higher? RPYVYYYSYLL [PTEN_Y177_R173P]
// result y

// query For this sequence, is measured phosphorylation enrichment 0.5 or higher? IVKAFYVRARA [AIPL1_Y268_YF]
// result n

// query For this sequence, is measured phosphorylation enrichment 0.5 or higher? TTKVSYRASQP [MKI67_Y1737]
// result n

###

biological target: Fyn (UniProt P06241); assay: phosphorylation enrichment, bacterial display (enrichment ratio); higher = better substrate or ligand; peptides without Tyr show the background
Sequence (P06241 whole entry, looked up): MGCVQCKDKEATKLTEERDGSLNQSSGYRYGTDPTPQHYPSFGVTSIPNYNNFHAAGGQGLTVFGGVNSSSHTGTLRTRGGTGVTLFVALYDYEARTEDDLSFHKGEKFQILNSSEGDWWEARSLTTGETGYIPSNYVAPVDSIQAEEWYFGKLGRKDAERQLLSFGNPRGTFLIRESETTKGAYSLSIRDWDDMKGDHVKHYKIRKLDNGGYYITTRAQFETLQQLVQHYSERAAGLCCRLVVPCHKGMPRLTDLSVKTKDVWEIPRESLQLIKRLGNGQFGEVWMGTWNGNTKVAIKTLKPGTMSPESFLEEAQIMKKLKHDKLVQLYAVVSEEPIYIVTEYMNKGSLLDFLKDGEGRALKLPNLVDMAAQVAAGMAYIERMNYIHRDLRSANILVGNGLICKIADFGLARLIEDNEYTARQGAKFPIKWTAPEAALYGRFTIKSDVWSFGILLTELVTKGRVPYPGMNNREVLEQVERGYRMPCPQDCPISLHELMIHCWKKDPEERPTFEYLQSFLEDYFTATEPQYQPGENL
Label t when phosphorylation enrichment >= 0.5; otherwise f.

Record sequence: RRSKMYLKTRS [LPL_Y329_S325R]
Class name: t

Record sequence: DTKAFYPEEIS [HSPA1A_Y115_E110D]
Class name: f

Record sequence: PMDTYYDSTRG [DYNC2H1_Y2231]
Class name: t

Record sequence: IENKLYGTSDP [RET_Y1062_M1064T]
Class name: t

Record sequence: LGLDEYLDKLK [FMNL2_Y352]
Class name: f

// query For this sequence, is measured phosphorylation enrichment 0.5 or higher? RRNTYYASIAK [ACADM_Y353]
// result t

// query For this sequence, is measured phosphorylation enrichment 0.5 or higher? FLRTGYSVPFG [TGM1_Y370_YF]
// result t

// query For this sequence, is measured phosphorylation enrichment 0.5 or higher? FPHVISARLWR [SMAD4_Y95_Y95S]
// result t

// query For this sequence, is measured phosphorylation enrichment 0.5 or higher? PTTKTYLPHFD [HBA1_Y43_F44L]
// result t

###

test system: c-Src; assay: phosphorylation enrichment, bacterial display (enrichment ratio); higher = better substrate or ligand; peptides without Tyr show the background
Each entry below lists one item and its recorded phosphorylation enrichment value.

Record sequence: GGSTYYIDTNA [ACTL6A_Y69_P66S]
Recorded endpoint: phosphorylation enrichment
Result: 0.805

Record sequence: YADPYYDYEIE [ZC3H18_Y372]
Recorded endpoint: phosphorylation enrichment
Result: 3.01

Record sequence: NYADPYRQLQY [CTNND2_Y503]
Recorded endpoint: phosphorylation enrichment
Result: 0.551

Record sequence: PELIDYGKLRK [ACTN1_Y193]
Recorded endpoint: phosphorylation enrichment
Result: 0.404

Record sequence: VVSMNYRVGAL [BCHE_Y174]
Recorded endpoint: phosphorylation enrichment
Result: 0.342

// query Consider the sequence LHAALYKRKLL [TTLL5_Y542_E543K] and give its measured phosphorylation enrichment.
// result 0.551

// query Consider the sequence ERQIRYLNHQL [CEP152_Y268] and give its measured phosphorylation enrichment.
// result 0.399

// query Consider the sequence TGTQLYGRFGS [ITGA2B_Y384] and give its measured phosphorylation enrichment.
// result 7.68

// query Consider the sequence KPIETYFSKNF [PLP1_Y50_L46P_YF] and give its measured phosphorylation enrichment.
// result 0.44

// query Consider the sequence PTTKTYFRHFD [HBA1_Y43_P45R] and give its measured phosphorylation enrichment.
// result 0.545

// query Consider the sequence ELETLYKKAVK [CC2D2A_Y381] and give its measured phosphorylation enrichment.
// result 0.323

###

system: AncSZ; test: phosphorylation enrichment, bacterial display (enrichment ratio); higher = better substrate or ligand; peptides without Tyr show the background
Label YES when phosphorylation enrichment >= 0.8; otherwise NO.

Record sequence: HRTLVYGGIFL [FBP1_Y259]
Class name: YES
--
Record sequence: YRKNIYNVKST [SYNE2_Y575]
Class name: NO
--
Record sequence: RPSELYYSKIS [SMG1_Y2253_G2258S]
Class name: YES
--
Record sequence: GKSDPYHATTG [GJA1_Y247_S251T]
Class name: NO
--
Record sequence: NFATLYLKIYH [PDE6B_Y219]
Class name: YES
--
Record sequence: FSIAQYCCRMG [LRRK2_Y2023_G2019S_YF]
Class name: YES
--
Record sequence: VLALWYYYLTH [ZDHHC23_Y127]
Class name: YES
--
Record sequence: WLFFRYLAIGC [ATP2A2_Y836]
Class name: YES
--
Record sequence: AKKVFYMIETR [SHH_Y253_V254M]
Class name: YES
--
Record sequence: IVGLLYRLLTE [SETX_Y1978]
Class name: YES

// query For this sequence, is measured phosphorylation enrichment 0.8 or higher? FSPGSYERETF [NF1_Y2192]
// result YES

// query For this sequence, is measured phosphorylation enrichment 0.8 or higher? RDLTHYLMKIL [ACTG1_Y188_D187H]
// result YES

// query For this sequence, is measured phosphorylation enrichment 0.8 or higher? QGQHWYSSSDT [CASP10_Y9_K14T]
// result YES

###

molecular target: Hck (UniProt P08631); assay: phosphorylation enrichment, bacterial display (enrichment ratio); higher = better substrate or ligand; peptides without Tyr show the background
Label yes (1) when phosphorylation enrichment >= 0.6; otherwise no (0).

Use these answered entries as a reference point.
Record sequence: MFNPCYGLFEY [NEDD4L_Y680_Y679C]
Measured target: Hck (UniProt P08631)
Class name: yes (1)

Record sequence: CTTIHDNYMCN [TP53_Y234_Y234D]
Measured target: Hck (UniProt P08631)
Class name: no (0)

Record sequence: DLVRPYVHKIL [SF3B1_Y570]
Measured target: Hck (UniProt P08631)
Class name: no (0)

Record sequence: TDIVAYSGWVQ [SPTBN2_Y477_R480W]
Measured target: Hck (UniProt P08631)
Class name: yes (1)

Record sequence: ADNQRYAFMPL [TMEM87B_Y460_N456D]
Measured target: Hck (UniProt P08631)
Class name: yes (1)

// query For this sequence, is measured phosphorylation enrichment 0.6 or higher? LIDGFYRLTAD [JAK2_Y373_YF]
// result yes (1)

// query For this sequence, is measured phosphorylation enrichment 0.6 or higher? DYLEKYYKFGC [NNMT_Y24_S29C]
// result no (0)

// query For this sequence, is measured phosphorylation enrichment 0.6 or higher? KLKRSYSSPDI [USP8_Y717]
// result no (0)

// query For this sequence, is measured phosphorylation enrichment 0.6 or higher? VDTRAYFTSAT [MT-CO1_Y304]
// result no (0)

// query For this sequence, is measured phosphorylation enrichment 0.6 or higher? NPIGLYSAETL [LDB3_Y202]
// result yes (1)

// query For this sequence, is measured phosphorylation enrichment 0.6 or higher? MRALTYCDLHK [KCNH2_Y827_V822M]
// result no (0)

// query For this sequence, is measured phosphorylation enrichment 0.6 or higher? SHGQDYLVGNK [GSTA1_Y147]
// result no (0)

// query For this sequence, is measured phosphorylation enrichment 0.6 or higher? TYGNLYGSRKQ [YIPF7_Y59_A54T]
// result yes (1)
